target: DNA dC->dU-editing enzyme APOBEC-3F (Homo sapiens) (UniProt Q8IUX4); assay: qHTS for inhibitors of Vif-A3F interactions: Cherry picks; details: HeLa A3F-eYFP + Vif, eYFP fluorescence, 24 h; further: nearly all actives have a fitted effect of over 70% in size;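 on max response: % of control where 0% means no effect; active compounds raise eYFP fluorescence by blocking Vif-driven A3F loss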
Sequence (Q8IUX4 whole entry, looked up): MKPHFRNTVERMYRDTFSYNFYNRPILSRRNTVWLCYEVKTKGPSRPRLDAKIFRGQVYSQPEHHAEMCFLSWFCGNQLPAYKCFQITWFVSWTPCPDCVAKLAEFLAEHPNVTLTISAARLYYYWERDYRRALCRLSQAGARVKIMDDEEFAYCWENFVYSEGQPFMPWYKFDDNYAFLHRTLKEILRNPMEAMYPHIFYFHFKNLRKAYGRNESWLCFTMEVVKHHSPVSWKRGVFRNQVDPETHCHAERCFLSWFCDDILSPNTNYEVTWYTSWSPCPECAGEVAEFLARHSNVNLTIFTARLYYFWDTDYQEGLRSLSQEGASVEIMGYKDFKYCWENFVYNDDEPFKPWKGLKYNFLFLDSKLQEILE
About 590 (28%) of roughly 2,100 compounds were called active. Another 42% or so got no clear call; they are omitted. Some of the results follow.
observed.property: max response (%)
Numbers only, in %.

Example compounds with recorded max response:
>>> print(df.to_string())
                                   compound  unit_tag  reported_measurement
0     S=C(NC1CCCCC1)N(CCc1ccccc1)CCc1ccccc1         %                 -2.16
1  COc1ccc(OCCCC(=O)N2CCN(S(=O)(=O)c3cccc(F)c3)CC2)cc1         %                 -3.23

// each compound listed below needs its max response
1. NNC(=S)Nc1c(F)cc(F)cc1Br
2. Clc1ccccc1C1CC(c2ccccc2)=Nc2ccccc2N1 (stereo unspecified)
3. Cc1cc(NC(=O)Nc2nnc(N(C)Cc3ccccc3)s2)ccc1Br
4. COCCCNC(=S)N/N=C/c1ccc(OC)cc1

Response given:
1.43
-7.9
-0.38
-0.494

---

target: DNA dC->dU-editing enzyme APOBEC-3F (Homo sapiens) (UniProt Q8IUX4); experiment: qHTS for inhibitors of Vif-A3F interactions: Cherry picks; settings: HeLa A3F-eYFP + Vif (tagged APOBEC3F with the HIV-1 protein that degrades it), eYFP fluorescence, 24 h; further: nearly all actives have a fitted effect of over 70% in size; further: potency means the concentration at half of the fitted maximal effect
About 590 (28%) of roughly 2,100 compounds were called active. About 42% were inconclusive and are not listed. This is one part of the list.
observed.property: Potency

Example compounds with recorded Potency:
>>> print(df.to_string())
                                   compound  observed_property  reported_measurement
0  CCCOc1ccc(C(=O)Nc2cccc(NC(=O)c3ccc(Cl)cc3Cl)c2)cc1            Potency      16.4 µM (active)
1  COc1ccc(OC)c(NC(=O)Cn2c(=O)n(-c3ccc(Cl)cc3)c(=O)c3c(C)c(C)sc32)c1            Potency      20.6 µM (active)

// each compound listed below needs its Potency
1. COc1ccc(Cn2c(C)nc3c(c2=O)c2nc4ccccc4nc2n3Cc2ccco2)cc1
2. Cc1cc(/C=C2\SC(=S)N(Cc3ccco3)C2=O)c(C)n1-c1cccnc1
3. O=C(Nc1ccccc1-c1nc2ccccc2[nH]1)c1ccc(N2C(=O)CCC2=O)cc1
4. Cc1ccc(/C=C/c2ccc(N(C)C)cc2)[n+](C)c1
5. OCC[n+]1ccc(/C=C/c2c[nH]c3ccccc23)cc1
6. CC[n+]1cc(C)ccc1/C=C/c1ccc(N(C)C)cc1
7. CCCCN1C(=O)/C(=C/C=C2/CC(C)(C)CN2C)SC1=S

Response given:
1. 14.6 µM (active)
2. 20.6 µM (active)
3. 18.4 µM (active)
4. 8.86 µM (active)
5. 8.2 µM (active)
6. 8.86 µM (active)
7. 3.96 µM (active)

// each compound listed below needs its Potency
1. CCOc1ccc(C2CC(c3c(O)c4ccccc4oc3=O)=NN2c2ccccc2)cc1OC (configuration not stated)
2. Nc1c(C(=O)Nc2nc3ccccc3s2)sc2nc(-c3cccs3)ccc12

Response given:
13 µM (active)
20.6 µM (active)

// each compound listed below needs its Potency
1. CCOC(=O)C1=C(C)N=c2sc(=Cc3cc(Cl)c(OCC(=O)O)c(Cl)c3)c(=O)n2C1c1cccc(OC)c1 (configuration not stated)
2. Cc1ccc(-c2cn3nc(-c4ccccc4)c(-c4ccccc4)nc3n2)cc1
3. CN1CCc2c(sc(NC(=O)CSc3ccc(F)cc3)c2-c2nc3ccccc3s2)C1
4. Fc1ccc(CNc2nc3ccccc3n3nnnc23)cc1
5. O=C(Nc1ccc([N+](=O)[O-])cc1)C(Cc1ccccc1)N1C(=O)c2cccc3cccc(c23)C1=O (configuration not stated)
6. CN(C)c1ccc(/C=C/C(=O)c2c(O)c3ccccc3oc2=O)cc1
7. ClCc1nc2ccccc2n1Cc1ccccc1
8. CC[n+]1ccc(/C=C/c2c[nH]c3ccccc23)cc1

Response given:
["19.8 µM (active)", "18.4 µM (active)", "7.31 µM (active)", "23.1 µM (active)", "12.5 µM (active)", "1.46 µM (active)", "18.4 µM (active)", "9.2 µM (active)"]

// each compound listed below needs its Potency
1. CCc1cccc2c(C(O)c3c[nH]c4ccccc34)c[nH]c12 (configuration not stated)
2. C=CCN1C=CC(=CC=C(C#N)C#N)C=C1
3. Cc1cccc2[nH]cc(/C=C3/C=Nc4ccccc43)c12

Response given:
18.4 µM (active)
11.2 µM (active)
23.1 µM (active)
